Reference source: patent US4005075A

MIC values recorded for Escherichia coli NIHJ
Parameter: MIC (µg/mL)

CC1(C)S[C@@H]2[C@H](NC(=O)[C@H](NC(=O)c3cnc(O)nc3O)c3ccccc3)C(=O)N2[C@H]1C(=O)O : 12.5

a: CC(=O)Nc1ccc2ncc(C(=O)N[C@@H](C(=O)N[C@@H]3C(=O)N4[C@@H]3SC(C)(C)[C@@H]4C(=O)O)c3ccccc3)c(O)c2c1
b: CN(C)c1ccc2ncc(C(=O)N[C@@H](C(=O)N[C@@H]3C(=O)N4[C@@H]3SC(C)(C)[C@@H]4C(=O)O)C3=CCC=CC3)c(O)c2n1
[Q] Between the two listed entries a and b , which has its MIC at the higher number? Please identify the chosen entry by its label.
[A] a
